# inhibition listing for each entry below
Target: Voltage-dependent T-type calcium channel subunit alpha-1H (Homo sapiens) (UniProt O95180)
Sequence (O95180 whole entry): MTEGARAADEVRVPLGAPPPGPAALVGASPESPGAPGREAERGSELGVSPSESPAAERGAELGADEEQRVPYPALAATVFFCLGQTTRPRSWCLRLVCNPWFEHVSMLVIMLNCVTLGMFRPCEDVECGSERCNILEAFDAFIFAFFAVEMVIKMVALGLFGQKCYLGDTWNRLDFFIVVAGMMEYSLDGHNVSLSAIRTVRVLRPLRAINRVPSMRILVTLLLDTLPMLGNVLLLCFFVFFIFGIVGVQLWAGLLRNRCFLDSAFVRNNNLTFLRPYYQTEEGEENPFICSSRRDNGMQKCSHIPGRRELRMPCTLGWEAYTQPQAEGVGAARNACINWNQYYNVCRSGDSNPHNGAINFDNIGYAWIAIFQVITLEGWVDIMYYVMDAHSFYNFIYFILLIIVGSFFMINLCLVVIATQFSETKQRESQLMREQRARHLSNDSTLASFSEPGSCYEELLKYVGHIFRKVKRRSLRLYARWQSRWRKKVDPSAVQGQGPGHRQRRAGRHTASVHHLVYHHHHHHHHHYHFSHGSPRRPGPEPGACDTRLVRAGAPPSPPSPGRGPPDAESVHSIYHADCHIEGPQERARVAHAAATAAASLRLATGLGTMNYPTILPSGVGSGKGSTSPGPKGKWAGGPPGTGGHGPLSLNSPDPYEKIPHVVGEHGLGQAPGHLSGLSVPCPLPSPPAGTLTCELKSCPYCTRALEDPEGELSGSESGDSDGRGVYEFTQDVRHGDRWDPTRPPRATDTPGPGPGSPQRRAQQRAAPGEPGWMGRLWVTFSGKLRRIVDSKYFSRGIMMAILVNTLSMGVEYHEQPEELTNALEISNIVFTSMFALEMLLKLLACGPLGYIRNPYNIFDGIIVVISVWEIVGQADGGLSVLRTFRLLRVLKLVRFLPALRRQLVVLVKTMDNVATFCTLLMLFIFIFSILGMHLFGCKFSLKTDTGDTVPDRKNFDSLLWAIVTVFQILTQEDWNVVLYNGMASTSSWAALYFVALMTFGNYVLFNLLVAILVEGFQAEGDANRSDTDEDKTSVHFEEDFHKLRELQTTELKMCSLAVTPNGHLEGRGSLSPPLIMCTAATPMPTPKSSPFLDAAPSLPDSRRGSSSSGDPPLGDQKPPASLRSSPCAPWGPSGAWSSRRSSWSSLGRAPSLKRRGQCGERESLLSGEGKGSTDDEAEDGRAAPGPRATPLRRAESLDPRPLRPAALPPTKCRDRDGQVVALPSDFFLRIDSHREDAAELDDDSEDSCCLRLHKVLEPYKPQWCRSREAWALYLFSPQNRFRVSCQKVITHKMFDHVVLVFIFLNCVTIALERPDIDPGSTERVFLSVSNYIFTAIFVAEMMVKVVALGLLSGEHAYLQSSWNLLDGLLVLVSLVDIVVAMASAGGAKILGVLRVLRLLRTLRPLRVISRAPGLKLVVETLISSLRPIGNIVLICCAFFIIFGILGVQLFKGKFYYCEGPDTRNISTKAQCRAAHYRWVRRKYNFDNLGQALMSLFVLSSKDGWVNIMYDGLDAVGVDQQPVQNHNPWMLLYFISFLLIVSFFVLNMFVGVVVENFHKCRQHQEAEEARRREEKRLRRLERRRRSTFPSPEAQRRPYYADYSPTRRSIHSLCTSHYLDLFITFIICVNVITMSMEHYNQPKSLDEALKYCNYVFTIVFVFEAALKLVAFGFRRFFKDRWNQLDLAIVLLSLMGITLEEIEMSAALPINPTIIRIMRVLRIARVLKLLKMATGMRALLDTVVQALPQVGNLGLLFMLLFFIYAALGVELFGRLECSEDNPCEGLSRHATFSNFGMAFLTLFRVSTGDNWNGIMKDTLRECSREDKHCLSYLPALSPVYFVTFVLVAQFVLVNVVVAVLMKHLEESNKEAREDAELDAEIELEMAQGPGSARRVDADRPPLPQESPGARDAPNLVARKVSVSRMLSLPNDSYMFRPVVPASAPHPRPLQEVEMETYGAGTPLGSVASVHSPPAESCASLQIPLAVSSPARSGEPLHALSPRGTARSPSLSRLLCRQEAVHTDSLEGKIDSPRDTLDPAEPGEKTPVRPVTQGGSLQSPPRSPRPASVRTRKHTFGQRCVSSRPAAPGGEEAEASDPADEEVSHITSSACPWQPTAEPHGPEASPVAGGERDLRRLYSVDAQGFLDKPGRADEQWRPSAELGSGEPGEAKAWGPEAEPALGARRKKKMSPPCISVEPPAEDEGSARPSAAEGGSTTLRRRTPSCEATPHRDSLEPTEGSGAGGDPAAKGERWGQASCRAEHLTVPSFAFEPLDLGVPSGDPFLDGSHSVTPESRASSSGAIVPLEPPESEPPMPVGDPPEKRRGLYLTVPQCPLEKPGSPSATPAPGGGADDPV
Test: Inhibition of T type calcium channel subunit alpha-1H expressed in Xenopus oocytes at 100 uM by FDSS assay
Type: cell-based
Conditions: Oocyte
OBSERVATION TYPE: inhibition (%)

>>> print(df.to_string())
                  compound_structure_string  modifier  obs_value
0  CN1CCN(CCCCC(=O)N2CCN(CC(=O)Nc3cccc(Cl)c3)CC2)CC1         <          1
1  CCN1CCN(CCCCC(=O)N2CCN(CC(=O)Nc3cccc(Cl)c3)CC2)CC1         =       71.6
2  O=C(CN1CCN(C(=O)CCCCN2CCN(c3ccccc3)CC2)CC1)Nc1cccc(Cl)c1         =       75.3
3  O=C(CN1CCN(C(=O)CCCCN2CCN(c3ccccc3)CC2)CC1)Nc1cccc(C(F)(F)F)c1         =         53
4  CN1CCN(CCCCC(=O)N2CCN(CC(=O)Nc3cccc(C(F)(F)F)c3)CC2)CC1         <          1
5  CCN1CCN(CCCCC(=O)N2CCN(CC(=O)Nc3cccc(C(F)(F)F)c3)CC2)CC1         =       23.6

###

Target: Voltage-dependent T-type calcium channel subunit alpha-1G (Homo sapiens, UniProt O43497)
Sequence (O43497 whole entry): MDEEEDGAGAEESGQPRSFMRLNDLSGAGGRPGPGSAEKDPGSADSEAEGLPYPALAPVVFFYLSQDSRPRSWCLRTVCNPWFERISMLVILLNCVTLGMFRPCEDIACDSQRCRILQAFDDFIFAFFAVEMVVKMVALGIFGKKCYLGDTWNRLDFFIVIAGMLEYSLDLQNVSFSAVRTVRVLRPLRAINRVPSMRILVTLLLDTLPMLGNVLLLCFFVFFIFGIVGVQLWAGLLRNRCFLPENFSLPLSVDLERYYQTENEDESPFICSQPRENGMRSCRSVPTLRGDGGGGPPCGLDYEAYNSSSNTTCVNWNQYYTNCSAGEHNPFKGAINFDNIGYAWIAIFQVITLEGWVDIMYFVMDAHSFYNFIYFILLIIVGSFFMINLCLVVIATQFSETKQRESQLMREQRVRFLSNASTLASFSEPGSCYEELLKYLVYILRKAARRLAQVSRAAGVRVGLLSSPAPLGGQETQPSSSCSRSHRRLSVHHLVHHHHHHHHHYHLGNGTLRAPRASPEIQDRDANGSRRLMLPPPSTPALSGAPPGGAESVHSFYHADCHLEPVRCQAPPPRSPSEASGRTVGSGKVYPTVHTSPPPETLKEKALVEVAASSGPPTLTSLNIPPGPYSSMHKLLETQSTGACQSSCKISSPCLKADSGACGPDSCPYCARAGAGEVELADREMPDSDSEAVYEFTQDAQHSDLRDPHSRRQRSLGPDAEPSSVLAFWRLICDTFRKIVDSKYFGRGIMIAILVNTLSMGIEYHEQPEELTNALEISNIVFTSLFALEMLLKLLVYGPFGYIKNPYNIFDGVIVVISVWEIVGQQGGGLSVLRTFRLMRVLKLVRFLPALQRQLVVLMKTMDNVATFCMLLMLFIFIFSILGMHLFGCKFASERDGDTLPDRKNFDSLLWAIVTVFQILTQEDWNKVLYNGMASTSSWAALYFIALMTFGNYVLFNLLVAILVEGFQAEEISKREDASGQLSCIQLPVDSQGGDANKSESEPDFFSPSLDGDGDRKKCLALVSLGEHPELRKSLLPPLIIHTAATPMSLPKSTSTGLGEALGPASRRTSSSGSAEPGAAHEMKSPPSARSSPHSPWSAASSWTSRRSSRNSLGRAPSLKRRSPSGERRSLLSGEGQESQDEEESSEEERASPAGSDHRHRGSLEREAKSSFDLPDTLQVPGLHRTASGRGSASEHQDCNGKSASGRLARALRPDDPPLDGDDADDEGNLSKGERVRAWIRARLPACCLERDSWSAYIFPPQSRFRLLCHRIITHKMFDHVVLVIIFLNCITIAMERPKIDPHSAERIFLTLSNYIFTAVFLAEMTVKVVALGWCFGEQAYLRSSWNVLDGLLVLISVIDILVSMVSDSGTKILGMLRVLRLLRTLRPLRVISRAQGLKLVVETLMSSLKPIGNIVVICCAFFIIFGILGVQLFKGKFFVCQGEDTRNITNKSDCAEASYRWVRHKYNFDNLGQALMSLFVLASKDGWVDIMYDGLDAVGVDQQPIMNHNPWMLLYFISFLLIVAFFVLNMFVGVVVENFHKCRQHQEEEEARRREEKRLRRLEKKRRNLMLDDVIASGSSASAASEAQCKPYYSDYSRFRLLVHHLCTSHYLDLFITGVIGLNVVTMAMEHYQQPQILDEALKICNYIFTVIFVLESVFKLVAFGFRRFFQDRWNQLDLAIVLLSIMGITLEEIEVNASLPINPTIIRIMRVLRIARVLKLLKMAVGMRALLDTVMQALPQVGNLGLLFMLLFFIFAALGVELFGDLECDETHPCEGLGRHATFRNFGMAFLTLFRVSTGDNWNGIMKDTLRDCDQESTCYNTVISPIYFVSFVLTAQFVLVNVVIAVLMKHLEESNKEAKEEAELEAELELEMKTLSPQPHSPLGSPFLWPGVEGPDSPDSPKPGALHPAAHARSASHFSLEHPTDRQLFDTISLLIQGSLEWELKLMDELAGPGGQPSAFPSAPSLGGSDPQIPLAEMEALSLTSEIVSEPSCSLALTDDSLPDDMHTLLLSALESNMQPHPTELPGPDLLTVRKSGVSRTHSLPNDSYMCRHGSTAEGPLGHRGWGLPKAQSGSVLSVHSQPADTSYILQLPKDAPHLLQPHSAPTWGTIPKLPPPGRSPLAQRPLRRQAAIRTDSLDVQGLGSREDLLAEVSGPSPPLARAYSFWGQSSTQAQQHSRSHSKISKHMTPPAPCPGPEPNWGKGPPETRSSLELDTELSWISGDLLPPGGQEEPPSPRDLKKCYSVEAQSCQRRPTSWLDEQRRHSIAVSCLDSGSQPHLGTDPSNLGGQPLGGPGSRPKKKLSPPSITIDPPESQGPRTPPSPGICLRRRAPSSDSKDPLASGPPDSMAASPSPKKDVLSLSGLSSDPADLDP
Assay: Inhibition of T type calcium channel subunit alpha1G expressed in HEK293 cells assessed as effect on KCl-induced increase in intracellular calcium level at 10 uM by FDSS assay
Type: cell-based
Label y when inhibition is at or above 30%; anything below gets n.

                   compound_structure_string  group
 0  O=C(CCCN1CCN(Cc2ccccc2)CC1)Nc1ccc(Cl)cc1Cl      y
 1  O=C(CCCN1CCN(Cc2ccc(Cl)cc2)CC1)Nc1ccc(Cl)cc1      y
 2  O=C(CCCN1CCN(c2ccc(F)cc2)CC1)Nc1cc(Cl)c(Cl)c(Cl)c1      n
 3  O=C(CCCN1CCN(c2ccccc2F)CC1)Nc1ccc(F)cc1F      y
 4  O=C(CCN1CCN(Cc2cccc(Cl)c2)CC1)Nc1ccc(F)cc1F      y
 5  O=C(CCN1CCN(Cc2ccc(Cl)cc2)CC1)Nc1ccc(F)cc1F      y
 6   O=C(CCN1CCN(Cc2ccccc2)CC1)Nc1ccc(F)cc1F      n
 7  O=C(CCCN1CCN(Cc2cccc(Cl)c2)CC1)Nc1cc(Cl)c(Cl)c(Cl)c1      y
 8  O=C(CCCN1CCN(Cc2ccc3c(c2)OCO3)CC1)Nc1ccc(Cl)cc1Cl      y
 9  O=C(CCCCN1CCN(Cc2ccc(Cl)cc2)CC1)N1CCN(c2ccccc2F)CC1      y
10  O=C(CCCCN1CCN(Cc2ccc(Cl)cc2)CC1)N1CCN(c2ccccc2)CC1      y
11  O=C(CCN1CCN(c2cccc(Cl)c2)CC1)Nc1ccc(F)cc1F      n
12  COc1cccc(N2CCN(CCCC(=O)Nc3ccc(Cl)cc3)CC2)c1      y
13  O=C(CCCCN1CCN(c2cccc(Cl)c2)CC1)Nc1ccccc1Cl      y
14  O=C(CN1CCN(C(=O)CCCCN2CCN(c3ccc(F)cc3)CC2)CC1)Nc1ccccc1Cl      y
15  O=C(CCCN1CCN(Cc2ccc3c(c2)OCO3)CC1)Nc1ccc(Cl)cc1      y
16  COc1ccccc1N1CCN(CCCC(=O)Nc2ccc(Cl)cc2Cl)CC1      y
17  COc1cccc(N2CCN(CCCC(=O)Nc3ccc(Cl)cc3Cl)CC2)c1      y
18  O=C(CCCCN1CCN(Cc2ccc(Cl)c(Cl)c2)CC1)N1CCN(c2ccccc2)CC1      y
19  O=C(CCCN1CCN(Cc2c(F)cccc2Cl)CC1)Nc1ccc(Cl)cc1Cl      y
20  O=C(CCN1CCN(Cc2ccc(Cl)c(Cl)c2)CC1)Nc1ccc(F)cc1F      y
21  O=C(CCCN1CCN(c2ccccc2)CC1)Nc1ccc(Cl)cc1Cl      y
22  O=C(CCCN1CCN(Cc2ccccc2)CC1)Nc1cc(Cl)c(Cl)c(Cl)c1      y
23  COc1ccccc1N1CCN(CCCC(=O)Nc2ccc(Cl)cc2)CC1      y
24  O=C(CN1CCN(C(=O)CCCCN2CCN(c3ccccc3F)CC2)CC1)Nc1ccccc1Cl      n
25  O=C(CCN1CCN(c2ccccc2Cl)CC1)Nc1ccc(F)cc1F      n
26  O=C(CCCN1CCN(c2ccccc2Cl)CC1)Nc1ccc(F)cc1F      y
27  O=C(CCCN1CCN(c2ccc(F)cc2)CC1)Nc1ccc(F)cc1F      y
28  COc1ccccc1N1CCN(CCCC(=O)Nc2cc(Cl)c(Cl)c(Cl)c2)CC1      y
29  O=C(CN1CCN(C(=O)CCCCN2CCN(Cc3cccc(Cl)c3)CC2)CC1)Nc1ccccc1Cl      y
30   O=C(CCCN1CCN(c2ccccc2)CC1)Nc1ccc(F)cc1F      y
31  O=C(CCCN1CCN(Cc2cccc(Cl)c2)CC1)Nc1ccc(Cl)cc1      y
32  O=C(CCCN1CCN(c2ccccc2Cl)CC1)Nc1cc(Cl)c(Cl)c(Cl)c1      n
33  O=C(CCCCN1CCN(Cc2cccc(Cl)c2)CC1)N1CCN(c2ccccc2F)CC1      y
34  COc1cccc(N2CCN(CCCC(=O)Nc3ccc(F)cc3F)CC2)c1      y
